target: T1, recombinant human ErbB2/Fc chimera (human, UniProt P04626 23-652); test: ELISA, coated ErbB2/Fc
T1 construct: bought from R&D Systems; also called rhErbB2-Fc; rhErb2-Fc; Fc part of the bought chimera not given; not described

[
  {
    "BINDER": "13G51/1-127 (VHH, C-term myc-His6 tag) VHH: EVQLVESGGGLVQAGGSLSLSCAASGGTFNGRAVGWFRQAPGEEREFVTGISWSGGSTDYADSVKGRFTISRDNSKNTVSLQMNSLKPEDTAVYYCAASRRFYSGLVYYSVDAYENWGQGTQVTVSS",
    "binding result": "binds"
  },
  {
    "BINDER": "12E21/1-115 (VHH, C-term myc-His6 tag) VHH: EVQLVESGGGLVQPGGSLRLSCAASGSIDSIHVVGWYRKAPGKQREVVAYIGTAGATHYADSVKGRFTISRDNAENLVYLQMNNLKPEDTAVYYCSAGWGDSAYWGQGTQVTVSS",
    "binding result": "binds"
  },
  {
    "BINDER": "13E61/1-123 (VHH, C-term myc-His6 tag) VHH: EVQLVESGGGLVQAGGSLRLSCTASGQTFNMGWFRQAPGKEREFVAAISWSQYNTKYADSVKGRFTISRDNAINSLYLQMDTLKPEDTAVYYCAATNRWFSAVYDLPSRYTYWGQGTQVTVSS",
    "binding result": "binds"
  },
  {
    "BINDER": "12C91/1-121 (VHH, C-term myc-His6 tag) VHH: EVQLVESGGGLVQAGGSLRLSCVASGRTSSYYHMAWFRQAPGKEREFIAAINLSSGSTYYPDSVKGRFTISRGNAKNTVNLQMNSLKPEDTAVYYCAADNYRDSYLEYDYWGQGTQVTVSS",
    "binding result": "binds"
  }
]
